target: Ataxin-2 (Homo sapiens); assay: qHTS for Inhibitors of ATXN expression.; format: functional
The campaign covered roughly 400,000 compounds. About 2,100 (0.53%) were called active. Inconclusive results (about 14%) are left out. How the calls were made is not given here. What follows is part of a selection rich in actives, with near analogues and random picks from the rest.
Select the correct class. Options are 1 (yes) for active, 0 (no) for inactive and nothing else.

Illustrative cases are given below, each with its answer.
compound	assigned-label
NC(c1ccccc1)c1csc(Nc2ccc(C(F)(F)F)cn2)n1 (stereo not drawn)	1 (yes)
Nc1ccc2nc(-c3ccccc3)cnc2c1	0 (no)
N#Cc1c(N)n(-c2ccccc2)c(=O)c2cc([N+](=O)[O-])ccc12	0 (no)
C[C@@H]1C(c2cccc(Cl)c2)=NN(c2ccccc2)[C@H]1C(=O)N1CCOC1=O	0 (no)
O=C(OCC(=O)c1ccc[nH]1)c1cncc(Br)c1	0 (no)
CCc1cccc(C)c1NC(=O)CNCc1ccccc1	0 (no)

Q. Assay outcome for CCOC(=O)C1CCCN(Cc2ccc(OCc3ccccc3)c(OC)c2)C1 (stereo not drawn) : what was it?
A. 0 (no)

Q. What is the recorded call for this compound in the test? CCOc1ccc(C(=O)C(CN2CCOCC2)c2ccccc2)cc1 (stereo not drawn)
A. 1 (yes)

Q. What classification did COc1ccc(C(C)=O)cc1CSc1nc2ccccc2c(=O)n1-c1ccccc1 end up with in this test?
A. 1 (yes)

Q. Recorded call for CCOc1ccc2nc(N3CCOCC3)nc(C)c2c1 ?
A. 0 (no)

Q. Dear all, I need the recorded test outcome for COc1ccc(Cc2noc(CN(C)CCN3CCc4ccccc4C3)n2)cc1OC , thank you.
A. 0 (no)
